Assay: basal HepG2 mitochondrial membrane potential changes, profiling panel, cell-based, JC-1 fluorescence, 24 h, 100 nL compound (AID 1167); note: test concentration not given here
Conditions: higher = more signal
For each of the compounds below, state its z-score.
The reply should be a number, written without any unit.

Returns the measured z-score for the input compound. Input: CCCC=C(CCC)[C@@H](NC(=O)c1cccs1)c1ccc(C(F)(F)F)cc1
1.34

Returns the measured z-score for the input compound. Input: CC(C)C(=C=CC[C@H](O)c1ccc(OCCO)cc1)CCO
-1.55

Returns the measured z-score for the input compound. Input: COC(=O)[C@@]1(Cc2ccc(OC)cc2)[C@H]2c3cc(C(=O)N(C)C)n(Cc4ccccn4)c3C[C@H]2CN1C(=O)c1ccccc1
2.05
